assay: Biodistribution of 99mTc complexes in rats; type: in vivo, Australian Albino Wistar Rats; conditions: rat, bone, rats, 1 min, read-out: biodistribution bone
compounds and their reported tissue uptake at 1 min
Quick note: give the figure in %ID/g, leave out the unit.

# smiles.notation, value.unit, tissue uptake at 1 min
data = [
    ("O=C(O)CN(CCN(CC(=O)O)CC(=O)Nc1cc([N+](=O)[O-])ccc1O)CC(=O)Nc1cc([N+](=O)[O-])ccc1O", "%ID/g", 0.29),
    ("O=C(O)CN(CCN(CC(=O)O)CC(=O)Nc1ccccc1O)CC(=O)Nc1ccccc1O", "%ID/g", 0.32),
    ("Nc1ccc(O)c(NC(=O)CN(CCN(CC(=O)O)CC(=O)Nc2cc(N)ccc2O)CC(=O)O)c1", "%ID/g", 0.45),
    ("CC(C)(C)c1ccc(O)c(NC(=O)CN(CCN(CC(=O)O)CC(=O)Nc2cc(C(C)(C)C)ccc2O)CC(=O)O)c1", "%ID/g", 0.54),
]

Item "O=C(O)CN(CCN(CC(=O)O)CC(=O)Nc1ccc(Cl)cc1O)CC(=O)Nc1ccc(Cl)cc1O" has what recorded tissue uptake at 1 min? 0.37

###

assay: Biodistribution of 99mTc complexes in rats; format: in vivo, Australian Albino Wistar Rats; details: rat, thyroid, rats, 1 min, read-out: biodistribution thyroid
assay.metric: tissue uptake at 1 min (%ID/g)
Quick note: give the figure in %ID/g, leave out the unit.

# compound, value.unit, tissue uptake at 1 min
measured = [
    ("O=C(O)CN(CCN(CC(=O)O)CC(=O)Nc1cc([N+](=O)[O-])ccc1O)CC(=O)Nc1cc([N+](=O)[O-])ccc1O [Compound 3]", "%ID/g", 1.14),
    ("Nc1ccc(O)c(NC(=O)CN(CCN(CC(=O)O)CC(=O)Nc2cc(N)ccc2O)CC(=O)O)c1 [Compound 5]", "%ID/g", 2.43),
    ("CC(C)(C)c1ccc(O)c(NC(=O)CN(CCN(CC(=O)O)CC(=O)Nc2cc(C(C)(C)C)ccc2O)CC(=O)O)c1 [Compound 4]", "%ID/g", 2.28),
    ("O=C(O)CN(CCN(CC(=O)O)CC(=O)Nc1ccc(Cl)cc1O)CC(=O)Nc1ccc(Cl)cc1O [Compound 2]", "%ID/g", 1.71),
]

Item O=C(O)CN(CCN(CC(=O)O)CC(=O)Nc1ccccc1O)CC(=O)Nc1ccccc1O [Compound 1] has what recorded tissue uptake at 1 min? 1.15

###

compounds and their reported tissue uptake at 0.5 min
assay: Biodistribution of 99mTc complexes in rats; type: in vivo, Australian Albino Wistar Rats; conditions: rat, muscle, rats, 30 sec, read-out: biodistribution muscle
I'd appreciate it if you included the unit after the number.

Guide cases for tissue uptake at 0.5 min, answers given:
# smiles.notation, tissue uptake at 0.5 min
records = [
    ("O=C(O)CN(CCN(CC(=O)O)CC(=O)Nc1cc([N+](=O)[O-])ccc1O)CC(=O)Nc1cc([N+](=O)[O-])ccc1O", "0.26 %ID/g"),
    ("CC(C)(C)c1ccc(O)c(NC(=O)CN(CCN(CC(=O)O)CC(=O)Nc2cc(C(C)(C)C)ccc2O)CC(=O)O)c1", "0.36 %ID/g"),
    ("O=C(O)CN(CCN(CC(=O)O)CC(=O)Nc1ccc(Cl)cc1O)CC(=O)Nc1ccc(Cl)cc1O", "0.22 %ID/g"),
    ("O=C(O)CN(CCN(CC(=O)O)CC(=O)Nc1ccccc1O)CC(=O)Nc1ccccc1O", "0.28 %ID/g"),
]

Item "Nc1ccc(O)c(NC(=O)CN(CCN(CC(=O)O)CC(=O)Nc2cc(N)ccc2O)CC(=O)O)c1" has what recorded tissue uptake at 0.5 min? 0.25 %ID/g

###

assay: Biodistribution of compound No. 6 in mice (Table 6); assay type: in vivo, Balb/c mice; conditions: mouse, lungs, 3 min, read-out: biodistribution lungs
assay.metric: tissue uptake at 0.05 h (%ID/g)
Quick note: give the figure in %ID/g, leave out the unit.

Item "Cc1cc(C)c(O)c(NC(=O)CN(CCN(CC(=O)O)CC(=O)Nc2cc(C)cc(C)c2O)CC(=O)O)c1" has what recorded tissue uptake at 0.05 h? 6.38

###

molecules and their reported biodistribution lungs
experiment: Biodistribution of 99mTc complexes in mice; type: in vivo, Balb/c mice; conditions: 30 min
Quick note: give the figure in % Injected dose, leave out the unit.

Guide cases for biodistribution lungs, answers given:
# smiles.notation, biodistribution lungs (% Injected dose)
records = [
    ("O=C(O)CN(CCN(CC(=O)O)CC(=O)Nc1ccc(Cl)cc1O)CC(=O)Nc1ccc(Cl)cc1O", 0.43),
    ("CC(C)(C)c1ccc(O)c(NC(=O)CN(CCN(CC(=O)O)CC(=O)Nc2cc(C(C)(C)C)ccc2O)CC(=O)O)c1", 0.26),
    ("Cc1cc(C)c(O)c(NC(=O)CN(CCN(CC(=O)O)CC(=O)Nc2cc(C)cc(C)c2O)CC(=O)O)c1", 0.39),
]

Moving on to the next molecule.
Item "O=C(O)CN(CCN(CC(=O)O)CC(=O)Nc1ccccc1O)CC(=O)Nc1ccccc1O" has what recorded biodistribution lungs? 0.2

###

experiment: Biodistribution of 99mTc complexes in rats; format: in vivo, Australian Albino Wistar Rats; details: rat, eyes, rats, 30 sec, read-out: biodistribution eyes
assay.metric: tissue uptake at 0.5 min (%ID/g)
Quick note: give the figure in %ID/g, leave out the unit.

Guide cases for tissue uptake at 0.5 min, answers given:
# molecule, tissue uptake at 0.5 min (%ID/g)
rows = [
    ("CC(C)(C)c1ccc(O)c(NC(=O)CN(CCN(CC(=O)O)CC(=O)Nc2cc(C(C)(C)C)ccc2O)CC(=O)O)c1 [Compound 4]", 0.22),
    ("Nc1ccc(O)c(NC(=O)CN(CCN(CC(=O)O)CC(=O)Nc2cc(N)ccc2O)CC(=O)O)c1 [Compound 5]", 0.17),
    ("O=C(O)CN(CCN(CC(=O)O)CC(=O)Nc1cc([N+](=O)[O-])ccc1O)CC(=O)Nc1cc([N+](=O)[O-])ccc1O [Compound 3]", 0.2),
    ("O=C(O)CN(CCN(CC(=O)O)CC(=O)Nc1ccc(Cl)cc1O)CC(=O)Nc1ccc(Cl)cc1O [Compound 2]", 0.11),
]

Moving on to the next molecule.
Item O=C(O)CN(CCN(CC(=O)O)CC(=O)Nc1ccccc1O)CC(=O)Nc1ccccc1O [Compound 1] has what recorded tissue uptake at 0.5 min? 0.19

###

assay: Biodistribution of compound No. 6 in mice (Table 6); assay type: in vivo, Balb/c mice; conditions: mouse, kidneys, 3 min, read-out: biodistribution kidneys
assay.metric: tissue uptake at 0.05 h (%ID/g)
Quick note: give the figure in %ID/g, leave out the unit.

Item Cc1cc(C)c(O)c(NC(=O)CN(CCN(CC(=O)O)CC(=O)Nc2cc(C)cc(C)c2O)CC(=O)O)c1 [Compound 6] has what recorded tissue uptake at 0.05 h? 24.1

###

experiment: Biodistribution of 99mTc complexes in rats; assay type: in vivo, Australian Albino Wistar Rats; details: rat, skin, rats, 3 min, read-out: biodistribution skin
Use 0.5 %ID/g as the dividing line for tissue uptake at 0.05 h, with the line itself on the criterion met side and lower values as criterion not met.

Example cases with answers are listed next.
# compound, class
data = [
    ("O=C(O)CN(CCN(CC(=O)O)CC(=O)Nc1cc([N+](=O)[O-])ccc1O)CC(=O)Nc1cc([N+](=O)[O-])ccc1O [Compound 3]", "criterion met"),
    ("CC(C)(C)c1ccc(O)c(NC(=O)CN(CCN(CC(=O)O)CC(=O)Nc2cc(C(C)(C)C)ccc2O)CC(=O)O)c1 [Compound 4]", "criterion not met"),
    ("Nc1ccc(O)c(NC(=O)CN(CCN(CC(=O)O)CC(=O)Nc2cc(N)ccc2O)CC(=O)O)c1 [Compound 5]", "criterion not met"),
]

Exam item: decide whether the reported tissue uptake at 0.05 h for O=C(O)CN(CCN(CC(=O)O)CC(=O)Nc1ccc(Cl)cc1O)CC(=O)Nc1ccc(Cl)cc1O [Compound 2] is at least 0.5 %ID/g. criterion not met

###

assay: Biodistribution of compound No. 6 in mice (Table 6); type: in vivo, Balb/c mice; settings: mouse, liver, 3 min, read-out: biodistribution liver
assay.metric: tissue uptake at 0.05 h
I'd appreciate it if you included the unit after the number.

Item "Cc1cc(C)c(O)c(NC(=O)CN(CCN(CC(=O)O)CC(=O)Nc2cc(C)cc(C)c2O)CC(=O)O)c1" has what recorded tissue uptake at 0.05 h? 6.52 %ID/g

###

compounds and their reported tissue uptake at 0.5 min
test: Biodistribution of 99mTc complexes in rats; type: in vivo, Australian Albino Wistar Rats; details: rat, spleen, rats, 30 sec, read-out: biodistribution spleen
Quick note: give the figure in %ID/g, leave out the unit.

Guide cases for tissue uptake at 0.5 min, answers given:
# smiles.notation, tissue uptake at 0.5 min (%ID/g)
records = [
    ("O=C(O)CN(CCN(CC(=O)O)CC(=O)Nc1ccc(Cl)cc1O)CC(=O)Nc1ccc(Cl)cc1O", 0.62),
    ("O=C(O)CN(CCN(CC(=O)O)CC(=O)Nc1ccccc1O)CC(=O)Nc1ccccc1O", 0.53),
    ("CC(C)(C)c1ccc(O)c(NC(=O)CN(CCN(CC(=O)O)CC(=O)Nc2cc(C(C)(C)C)ccc2O)CC(=O)O)c1", 0.93),
    ("O=C(O)CN(CCN(CC(=O)O)CC(=O)Nc1cc([N+](=O)[O-])ccc1O)CC(=O)Nc1cc([N+](=O)[O-])ccc1O", 0.49),
]

Moving on to the next compound.
Item "Nc1ccc(O)c(NC(=O)CN(CCN(CC(=O)O)CC(=O)Nc2cc(N)ccc2O)CC(=O)O)c1" has what recorded tissue uptake at 0.5 min? 0.83
